- target under test: UniProt Q93009
- Sequence (Q93009 whole entry): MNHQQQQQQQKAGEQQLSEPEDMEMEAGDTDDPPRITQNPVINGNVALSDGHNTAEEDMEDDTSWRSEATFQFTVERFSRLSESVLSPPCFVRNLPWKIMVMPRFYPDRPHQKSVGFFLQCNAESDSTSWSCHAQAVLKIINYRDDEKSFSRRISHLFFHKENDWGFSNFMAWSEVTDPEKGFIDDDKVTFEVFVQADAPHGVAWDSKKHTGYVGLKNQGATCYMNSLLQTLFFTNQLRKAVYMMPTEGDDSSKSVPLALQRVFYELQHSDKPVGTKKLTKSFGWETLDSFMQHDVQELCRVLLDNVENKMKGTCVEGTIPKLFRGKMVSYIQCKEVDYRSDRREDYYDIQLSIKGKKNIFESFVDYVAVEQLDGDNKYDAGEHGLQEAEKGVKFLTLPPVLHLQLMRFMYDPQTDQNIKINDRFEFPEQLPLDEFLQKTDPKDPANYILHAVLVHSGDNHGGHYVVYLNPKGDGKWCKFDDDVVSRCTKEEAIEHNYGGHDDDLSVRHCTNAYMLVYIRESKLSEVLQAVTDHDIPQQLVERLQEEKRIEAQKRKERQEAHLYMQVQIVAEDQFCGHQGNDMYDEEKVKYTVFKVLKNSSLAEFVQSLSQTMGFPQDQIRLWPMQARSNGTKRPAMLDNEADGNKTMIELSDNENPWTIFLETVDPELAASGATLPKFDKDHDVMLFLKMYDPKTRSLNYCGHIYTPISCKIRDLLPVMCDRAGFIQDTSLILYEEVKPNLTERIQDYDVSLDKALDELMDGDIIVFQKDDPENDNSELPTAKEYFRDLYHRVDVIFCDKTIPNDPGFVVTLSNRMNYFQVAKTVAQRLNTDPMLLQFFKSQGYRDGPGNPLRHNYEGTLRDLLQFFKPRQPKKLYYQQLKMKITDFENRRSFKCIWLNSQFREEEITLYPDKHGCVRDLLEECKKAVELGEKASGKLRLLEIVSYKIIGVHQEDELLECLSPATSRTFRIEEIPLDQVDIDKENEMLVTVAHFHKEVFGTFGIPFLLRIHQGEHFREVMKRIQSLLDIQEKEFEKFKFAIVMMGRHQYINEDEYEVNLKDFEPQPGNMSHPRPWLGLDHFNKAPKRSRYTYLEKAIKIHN
- assay: Inhibition of recombinant full length USP7 (unknown origin) using ubiquintin-rhodamine as substrate preincubated for 30 mins followed by substrate addition measured after 1 hr by fluorescence-based Envision plate reader assay
Label MET when IC50 is strictly below 8 nM; at or above that, label NOT MET.

## Task Dear reviewer, please state whether Cc1cc(Cl)cc(-c2ccnc3cc(CN4C(=O)C5CC5C4=O)sc23)c1C[C@@H]1CNCCO1 (stereo partly drawn) has IC50 strictly beneath 8 nM.
## Result MET

## Task What about this compound? O=C([C@H]1Cc2cc(Cl)cc(-c3ccnc4cc(CN5C(=O)CCC5=O)sc34)c2O1)N1CCNCC1
## Result MET

## Task Item: Cc1cc(Cl)cc(-c2ccnc3cc(CN4C(=O)CCC4=O)sc23)c1CN1CCNCC1
## Result NOT MET

## Task Now consider Cc1cc(Cl)cc(-c2ccnc3cc(CN4C(=O)CCC4=O)sc23)c1O[C@@H]1CNC[C@@H]1F and answer again.
## Result MET

## Task Follow-up entry: Cc1cc(Cl)cc(-c2ccnc3cc(CN4C(=O)CCC4=O)sc23)c1CN1CCNC[C@@H]1C
## Result MET

## Task Then CC(=O)NCc1cc2nccc(-c3cc(Cl)cc4c3O[C@@H](C(=O)N3CCNCC3)C4)c2s1 ?
## Result NOT MET

## Task Subsequent entry: O=C1CCC(=O)N1Cc1cc2nccc(-c3cc(Cl)cc4c3O[C@@H](c3onc5c3CNCC5)C4)c2s1
## Result MET

## Task Subsequent entry: Cc1cc(Cl)cc(-c2ccnc3cc(CN4C(=O)CCC4=O)sc23)c1CN1[C@@H](C)CNC[C@@H]1C
## Result MET

## Task Same thing, different compound: O=C1CCCN1Cc1cc2nccc(-c3cc(Cl)cc4c3O[C@@H](C(=O)N3CCNCC3)C4)c2s1
## Result NOT MET

## Task And then O=C([C@H]1Cc2cc(Cl)cc(-c3ccnc4cc(C5(O)COC5)sc34)c2O1)N1CCNCC1 , what is it?
## Result NOT MET

## Task And then O=C([C@H]1Cc2cc(Cl)cc(-c3ccnc4cc(CO)sc34)c2O1)N1CCNCC1 , what is it?
## Result NOT MET

## Task Likewise for O=C1CCC(=O)N1Cc1cc2nccc(-c3cc(Cl)cc4c3O[C@@H](c3ocnc3CN3CCC3)C4)c2s1 ?
## Result NOT MET

====

- target under test: Ubiquitin carboxyl-terminal hydrolase 8 (Homo sapiens, UniProt P40818)
- Sequence (P40818 whole entry): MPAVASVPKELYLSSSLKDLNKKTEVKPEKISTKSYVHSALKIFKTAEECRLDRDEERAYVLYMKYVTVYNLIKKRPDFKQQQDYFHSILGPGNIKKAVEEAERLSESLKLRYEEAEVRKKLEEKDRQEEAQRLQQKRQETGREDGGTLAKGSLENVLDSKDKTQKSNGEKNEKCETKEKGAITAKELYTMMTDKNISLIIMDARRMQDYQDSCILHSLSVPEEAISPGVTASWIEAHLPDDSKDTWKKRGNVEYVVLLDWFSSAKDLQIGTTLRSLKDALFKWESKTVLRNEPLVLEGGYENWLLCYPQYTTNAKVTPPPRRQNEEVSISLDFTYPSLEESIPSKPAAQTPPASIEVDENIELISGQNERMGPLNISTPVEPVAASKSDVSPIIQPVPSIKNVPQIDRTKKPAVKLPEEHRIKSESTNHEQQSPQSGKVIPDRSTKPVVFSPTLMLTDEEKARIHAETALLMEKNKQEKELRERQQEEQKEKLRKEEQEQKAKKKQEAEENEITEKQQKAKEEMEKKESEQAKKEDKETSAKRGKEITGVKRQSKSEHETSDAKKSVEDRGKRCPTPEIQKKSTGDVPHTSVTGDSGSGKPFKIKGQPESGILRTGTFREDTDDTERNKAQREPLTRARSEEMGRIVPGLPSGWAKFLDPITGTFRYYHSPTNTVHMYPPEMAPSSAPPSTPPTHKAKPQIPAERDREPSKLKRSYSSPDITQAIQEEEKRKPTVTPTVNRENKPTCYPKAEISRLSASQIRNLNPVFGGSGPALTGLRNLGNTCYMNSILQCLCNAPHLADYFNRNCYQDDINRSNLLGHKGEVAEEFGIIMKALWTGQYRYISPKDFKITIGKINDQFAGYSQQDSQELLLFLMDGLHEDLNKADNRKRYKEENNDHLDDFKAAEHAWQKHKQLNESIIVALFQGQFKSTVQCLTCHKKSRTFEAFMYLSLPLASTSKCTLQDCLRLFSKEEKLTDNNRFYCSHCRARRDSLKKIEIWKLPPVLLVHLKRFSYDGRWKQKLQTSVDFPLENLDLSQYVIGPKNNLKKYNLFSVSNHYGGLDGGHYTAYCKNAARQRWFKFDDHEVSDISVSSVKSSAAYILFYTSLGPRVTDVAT
- assay: Inhibition of human USP8 expressed in Escherichia coli assessed as cleavage of Ubiquitin-Rhodamine110-glycine to Ubiquitin and Rhodamine110-glycine using Ubiquitin-Rhodamine110-glycine as substrate by fluorescence based analysis
measured quantity: IC50

## Task I'm curious: which IC50 was measured for Cc1cc(Cl)cc(-c2ccnc3cc(CN4C(=O)C5C(C4=O)C5(C)C)sc23)c1O[C@@H]1CCNC[C@@H]1C (stereo partly specified) tested on Ubiquitin carboxyl-terminal hydrolase 8 (Homo sapiens, UniProt P40818)?
## Result > 10 µM

====

- assay: AUC in BALB/c mouse at 30 mg/kg, po
- Type: ADME, organism-based
- assay setup: in vivo
measured quantity: AUC (ng·h/mL)
Field format: number, assumed ng·h/mL, no unit text.

## Task Requested read-out: AUC. Entry: Cc1cc(Cl)cc(-c2ccnc3cc(CN4C(=O)C5C(C4=O)C5(C)C)sc23)c1C[C@@H]1CNCCO1 (stereo partly specified)
## Result 9400

====

- target under test: Ubiquitin carboxyl-terminal hydrolase 20 (Homo sapiens)
- Sequence (Q9Y2K6 whole entry): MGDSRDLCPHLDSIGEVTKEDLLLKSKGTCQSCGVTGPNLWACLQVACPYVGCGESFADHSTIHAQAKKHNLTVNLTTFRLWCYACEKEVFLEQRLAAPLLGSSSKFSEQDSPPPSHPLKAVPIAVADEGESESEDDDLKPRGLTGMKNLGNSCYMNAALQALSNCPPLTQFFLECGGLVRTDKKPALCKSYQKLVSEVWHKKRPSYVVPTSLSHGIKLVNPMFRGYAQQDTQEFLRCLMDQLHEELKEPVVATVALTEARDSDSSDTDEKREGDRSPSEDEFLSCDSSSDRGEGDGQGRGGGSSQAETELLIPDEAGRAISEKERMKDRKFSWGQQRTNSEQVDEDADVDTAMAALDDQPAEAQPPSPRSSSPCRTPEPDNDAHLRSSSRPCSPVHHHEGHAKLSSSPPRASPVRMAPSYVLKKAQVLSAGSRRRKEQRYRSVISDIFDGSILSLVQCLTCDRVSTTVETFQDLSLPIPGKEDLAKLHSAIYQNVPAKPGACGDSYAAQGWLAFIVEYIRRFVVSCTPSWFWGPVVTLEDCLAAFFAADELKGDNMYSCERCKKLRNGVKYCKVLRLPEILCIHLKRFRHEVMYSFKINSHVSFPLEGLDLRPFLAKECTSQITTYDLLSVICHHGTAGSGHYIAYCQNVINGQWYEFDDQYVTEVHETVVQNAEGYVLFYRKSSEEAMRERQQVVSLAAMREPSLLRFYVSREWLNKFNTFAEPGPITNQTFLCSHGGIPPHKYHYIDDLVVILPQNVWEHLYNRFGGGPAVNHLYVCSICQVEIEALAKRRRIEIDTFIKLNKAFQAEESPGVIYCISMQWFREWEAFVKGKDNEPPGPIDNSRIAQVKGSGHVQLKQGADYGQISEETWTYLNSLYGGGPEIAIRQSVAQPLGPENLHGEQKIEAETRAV
pIC50: −log10 of the molar value.
measured quantity: pIC50

## Task Item: Cc1cc(Cl)cc(-c2ccnc3cc(CN4C(=O)C5C(C4=O)C5(C)C)sc23)c1O[C@@H]1CCNC[C@@H]1C (stereo partly specified) Test system: Ubiquitin carboxyl-terminal hydrolase 20 (Homo sapiens) Read-out: pIC50 Value: ?
## Result < 5.00

====

- target under test: Ubiquitin carboxyl-terminal hydrolase 6 (Homo sapiens, UniProt P35125)
- Sequence (P35125 whole entry): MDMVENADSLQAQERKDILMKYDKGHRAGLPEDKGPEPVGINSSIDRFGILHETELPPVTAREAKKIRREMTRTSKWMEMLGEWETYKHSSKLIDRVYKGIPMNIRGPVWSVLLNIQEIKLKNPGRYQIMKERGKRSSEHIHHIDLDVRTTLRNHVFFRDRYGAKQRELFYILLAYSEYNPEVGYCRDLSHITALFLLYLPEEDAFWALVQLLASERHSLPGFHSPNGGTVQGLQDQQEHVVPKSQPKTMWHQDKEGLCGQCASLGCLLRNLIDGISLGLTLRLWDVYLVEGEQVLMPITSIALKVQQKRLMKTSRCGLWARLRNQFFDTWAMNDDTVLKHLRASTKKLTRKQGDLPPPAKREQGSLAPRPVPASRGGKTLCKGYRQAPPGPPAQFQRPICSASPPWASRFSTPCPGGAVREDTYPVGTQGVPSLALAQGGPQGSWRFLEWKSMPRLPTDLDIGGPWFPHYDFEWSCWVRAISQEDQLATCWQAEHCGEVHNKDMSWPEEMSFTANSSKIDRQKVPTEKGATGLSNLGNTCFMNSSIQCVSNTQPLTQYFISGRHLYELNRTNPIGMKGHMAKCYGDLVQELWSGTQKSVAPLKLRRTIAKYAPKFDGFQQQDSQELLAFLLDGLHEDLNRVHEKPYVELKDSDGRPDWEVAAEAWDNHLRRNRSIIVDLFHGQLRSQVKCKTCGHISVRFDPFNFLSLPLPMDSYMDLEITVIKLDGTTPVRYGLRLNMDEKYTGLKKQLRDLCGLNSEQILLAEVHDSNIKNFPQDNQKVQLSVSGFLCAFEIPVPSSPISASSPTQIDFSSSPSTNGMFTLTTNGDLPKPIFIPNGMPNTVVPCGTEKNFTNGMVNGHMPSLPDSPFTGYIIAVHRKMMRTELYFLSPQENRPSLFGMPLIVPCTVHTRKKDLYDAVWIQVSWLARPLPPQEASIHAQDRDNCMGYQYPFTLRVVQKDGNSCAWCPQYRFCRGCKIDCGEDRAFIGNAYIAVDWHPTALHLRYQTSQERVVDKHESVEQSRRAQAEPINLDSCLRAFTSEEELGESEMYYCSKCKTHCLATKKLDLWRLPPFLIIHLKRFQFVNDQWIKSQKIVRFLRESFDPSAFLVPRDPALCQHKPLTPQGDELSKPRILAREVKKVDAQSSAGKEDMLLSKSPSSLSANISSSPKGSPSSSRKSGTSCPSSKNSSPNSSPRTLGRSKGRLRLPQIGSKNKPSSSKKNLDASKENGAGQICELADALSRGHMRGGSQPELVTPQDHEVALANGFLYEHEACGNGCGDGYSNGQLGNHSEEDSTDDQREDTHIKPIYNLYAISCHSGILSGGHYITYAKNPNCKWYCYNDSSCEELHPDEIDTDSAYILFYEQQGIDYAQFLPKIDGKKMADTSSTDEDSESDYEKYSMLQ
pIC50: −log10 of the molar value.
measured quantity: pIC50

## Task I'd like to know its pIC50. The compound in question is Cc1cc(Cl)cc(-c2ccnc3cc(CN4C(=O)C5C(C4=O)C5(C)C)sc23)c1O[C@@H]1CCNC[C@@H]1C (stereo partly specified)
## Result < 5.00

====

Protein target, amino acids: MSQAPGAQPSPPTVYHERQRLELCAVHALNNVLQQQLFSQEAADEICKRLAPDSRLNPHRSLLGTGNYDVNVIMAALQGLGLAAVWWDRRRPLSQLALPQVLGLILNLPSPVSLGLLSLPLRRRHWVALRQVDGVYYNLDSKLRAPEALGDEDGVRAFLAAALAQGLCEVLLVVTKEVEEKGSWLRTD
pIC50: −log10 of the molar value.
measured quantity: pIC50

## Task State the recorded pIC50 for this entry: Cc1cc(Cl)cc(-c2ccnc3cc(CN4C(=O)C5C(C4=O)C5(C)C)sc23)c1O[C@@H]1CCNC[C@@H]1C (stereo partly specified)
## Result < 5.00

====

- target under test: Ataxin-3 (Homo sapiens)
- Sequence (P54252 whole entry): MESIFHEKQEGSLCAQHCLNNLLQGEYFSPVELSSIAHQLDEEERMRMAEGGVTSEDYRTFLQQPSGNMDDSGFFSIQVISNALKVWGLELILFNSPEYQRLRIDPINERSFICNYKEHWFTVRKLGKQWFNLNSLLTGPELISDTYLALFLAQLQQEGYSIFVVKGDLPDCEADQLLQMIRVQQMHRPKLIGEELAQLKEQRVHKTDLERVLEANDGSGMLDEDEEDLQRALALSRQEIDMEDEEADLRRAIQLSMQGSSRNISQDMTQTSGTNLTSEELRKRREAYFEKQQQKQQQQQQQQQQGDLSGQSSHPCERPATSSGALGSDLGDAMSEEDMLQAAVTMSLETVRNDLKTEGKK
measured quantity: IC50

## Task Entry Cc1cc(Cl)cc(-c2ccnc3cc(CN4C(=O)C5C(C4=O)C5(C)C)sc23)c1O[C@@H]1CCNC[C@@H]1C (stereo partly specified) has what IC50?
## Result > 10 µM

====

- target under test: Ubiquitin carboxyl-terminal hydrolase 28 (Homo sapiens, UniProt Q96RU2)
- Sequence (Q96RU2 whole entry): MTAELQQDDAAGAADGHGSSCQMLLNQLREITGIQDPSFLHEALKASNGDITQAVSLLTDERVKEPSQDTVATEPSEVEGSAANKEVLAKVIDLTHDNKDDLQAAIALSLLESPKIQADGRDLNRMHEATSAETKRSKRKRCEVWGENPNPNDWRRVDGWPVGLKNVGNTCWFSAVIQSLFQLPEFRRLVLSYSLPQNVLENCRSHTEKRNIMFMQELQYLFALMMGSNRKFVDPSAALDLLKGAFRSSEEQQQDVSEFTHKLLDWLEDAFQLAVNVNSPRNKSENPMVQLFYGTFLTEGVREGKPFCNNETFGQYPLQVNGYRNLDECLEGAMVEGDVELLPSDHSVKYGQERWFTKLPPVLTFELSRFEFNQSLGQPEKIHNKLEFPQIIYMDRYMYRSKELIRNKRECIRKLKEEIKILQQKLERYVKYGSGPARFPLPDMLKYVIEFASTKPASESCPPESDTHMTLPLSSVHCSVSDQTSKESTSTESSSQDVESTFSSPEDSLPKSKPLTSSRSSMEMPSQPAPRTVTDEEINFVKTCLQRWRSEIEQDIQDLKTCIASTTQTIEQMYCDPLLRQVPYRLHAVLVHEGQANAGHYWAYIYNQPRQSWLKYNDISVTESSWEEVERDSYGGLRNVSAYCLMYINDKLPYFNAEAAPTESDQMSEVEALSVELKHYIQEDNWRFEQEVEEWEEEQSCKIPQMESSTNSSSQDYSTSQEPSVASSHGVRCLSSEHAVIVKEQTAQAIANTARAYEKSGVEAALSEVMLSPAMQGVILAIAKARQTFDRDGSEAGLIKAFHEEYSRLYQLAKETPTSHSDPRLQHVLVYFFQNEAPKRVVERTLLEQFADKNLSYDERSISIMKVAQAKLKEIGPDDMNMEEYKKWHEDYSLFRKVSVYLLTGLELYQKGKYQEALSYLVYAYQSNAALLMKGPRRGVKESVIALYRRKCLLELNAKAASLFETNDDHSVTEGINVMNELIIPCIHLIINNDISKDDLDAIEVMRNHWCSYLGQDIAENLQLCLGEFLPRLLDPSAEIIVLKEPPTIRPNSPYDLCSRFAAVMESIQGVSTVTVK
pIC50: −log10 of the molar value.
measured quantity: pIC50

## Task Given the compound Cc1cc(Cl)cc(-c2ccnc3cc(CN4C(=O)C5C(C4=O)C5(C)C)sc23)c1O[C@@H]1CCNC[C@@H]1C (stereo partly specified) , what is its reported pIC50?
## Result < 5.00
